Attribution: patent US20060264369

- system under test: von Willebrand factor full length (Homo sapiens, UniProt P04275 SEQ:764-2813)
- procedure details: filter; 46% bound at 100 nM
- test parameters: tags: Calbiochem 681300
pKd: −log10 of the molar value.
The reader will find reported pKd values listed item by item below.
readout kind: pKd

- GGCGTGCAGTGCCTTCGGCCGTGCGGTGCCTCCGTCACGCC (ssDNA, 2'-OMe at 1; 3'-idT) [ARC1194]: 8.52
- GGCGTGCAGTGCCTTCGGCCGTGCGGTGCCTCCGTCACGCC (ssDNA, 2'-OMe at 3; 3'-idT) [ARC1196]: 8.70
- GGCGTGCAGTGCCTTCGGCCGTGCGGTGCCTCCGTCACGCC (ssDNA, 2'-OMe at 4; 3'-idT) [ARC1197]: 8.70
- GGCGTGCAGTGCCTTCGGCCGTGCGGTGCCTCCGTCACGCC (ssDNA, 2'-OMe at 37; 3'-idT) [ARC1230]: 8.52
